B1: DVL3 (parent)
chain: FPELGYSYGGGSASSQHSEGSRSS

variants of: B1; assay: protein stability index of a GFP-peptide fusion (GPS, HEK-293T) (PSI 1-6); higher = more stable; conditions: c terminus: a fixed tail appended;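 note: lentivirally expressed fusions sorted by FACS into six bins by GFP to DsRed ratio, PSI derived from sequencing read proportions per bin multiplied by bin number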
metric.name: protein stability index
Lab note: jot the number down without any unit.

Can you share its protein stability index? I mean this variant: FPELGYSYGGGSASSQHSEGKRSS [S21K]
3.17

Now give it for FPSLGYSYGGGSASSQHSEGSRSS [E3S] too.
1.59

Now give it for FPELGYSYGGGSASSQHSEGDRSS [S21D] too.
2.87

Now give it for FPELGYSYGGGSASSQHSEGSVSS [R22V] too.
3.18

Now give it for FPELGYSYGGGSASSQHSENSRSS [G20N] too.
3.43

Now give it for FPDLGYSYGGGSASSQHSEGSRSS [E3D] too.
2.67

Now give it for FPELGDSYGGGSASSQHSEGSRSS [Y6D] too.
5.2

Now give it for FPELGLSYGGGSASSQHSEGSRSS [Y6L] too.
3.53

Now give it for FPELGYSYGGGSAGSQHSEGSRSS [S14G] too.
3.44

Now give it for APELGYSYGGGSASSQHSEGSRSS [F1A] too.
5.09

Now give it for FPELGYSYGGGSFSSQHSEGSRSS [A13F] too.
2.31

Now give it for FPELGYSYGGGSASSQHSPGSRSS [E19P] too.
3.15

Now give it for FPELGYSYGGGSASSQHSEGSDSS [R22D] too.
3.42

Now give it for FPELGYSYGGGSASSQHSEWSRSS [G20W] too.
2.32

Now give it for FPELLYSYGGGSASSQHSEGSRSS [G5L] too.
3.18

Now give it for FYELGYSYGGGSASSQHSEGSRSS [P2Y] too.
3.1

Now give it for FPELGYSYGGGSASSQHSEGSMSS [R22M] too.
3.4

Now give it for FPELGYSYGGGSASSQHSEGSRDS [S23D] too.
3.17

Now give it for FPELGYSYGGRSASSQHSEGSRSS [G11R] too.
3.5

Now give it for FPELGYSYGGGSASSQHSLGSRSS [E19L] too.
2.06

Now give it for FPELGYAYGGGSASSQHSEGSRSS [S7A] too.
2.12

Now give it for FPELGYSYGGGSASSQQSEGSRSS [H17Q] too.
2.83

Now give it for FPELGYDYGGGSASSQHSEGSRSS [S7D] too.
4.89

Now give it for FPELGYSYGGGSASSQHSEESRSS [G20E] too.
3.52

Now give it for FPELGYSYGGGSASSQHSEGSRES [S23E] too.
2.9

Now give it for FPELGYSYGGGVASSQHSEGSRSS [S12V] too.
3

Now give it for FPELGYSYGGGSTSSQHSEGSRSS [A13T] too.
3.31

Now give it for FPELGYSYGGGSASSQHSEGSKSS [R22K] too.
3.15

Now give it for FPELGSSYGGGSASSQHSEGSRSS [Y6S] too.
3.98

Now give it for FPELGYSYQGGSASSQHSEGSRSS [G9Q] too.
2.8

Now give it for FPELGYSYGGGSASSQHKEGSRSS [S18K] too.
2.98

Now give it for FPELGYSYGGGSASSQVSEGSRSS [H17V] too.
3.22

Now give it for FPELGYSYGGGSASSQHSEGSSSS [R22S] too.
3.66

Now give it for FPELGYSYTGGSASSQHSEGSRSS [G9T] too.
3.32

Now give it for FPELGYSYGGGSASSQHSEGSRSV [S24V] too.
2.34

Now give it for FPELGYSYGGGSASCQHSEGSRSS [S15C] too.
2.19

Now give it for FPELGYSYGGGSASSQHSEGGRSS [S21G] too.
2.71

Now give it for FPVLGYSYGGGSASSQHSEGSRSS [E3V] too.
3.75

Now give it for FPELGYSYMGGSASSQHSEGSRSS [G9M] too.
2.49

Now give it for FEELGYSYGGGSASSQHSEGSRSS [P2E] too.
4.66

Now give it for FPELGYSYGQGSASSQHSEGSRSS [G10Q] too.
2.84

Now give it for FPELGYSYIGGSASSQHSEGSRSS [G9I] too.
2.22

Now give it for FPELGFSYGGGSASSQHSEGSRSS [Y6F] too.
2.32

Now give it for FPELGYSYGGGSASSQHSRGSRSS [E19R] too.
2.85

Now give it for FPELGYSYGGGSASSMHSEGSRSS [Q16M] too.
3.07

Now give it for FPELGYSYGGGSANSQHSEGSRSS [S14N] too.
2.87
